Value source: PubChem BioAssay

- ASSAY_SYSTEM: Torsin-1A (Homo sapiens) (UniProt O14656)
- Sequence (O14656 whole entry, looked up): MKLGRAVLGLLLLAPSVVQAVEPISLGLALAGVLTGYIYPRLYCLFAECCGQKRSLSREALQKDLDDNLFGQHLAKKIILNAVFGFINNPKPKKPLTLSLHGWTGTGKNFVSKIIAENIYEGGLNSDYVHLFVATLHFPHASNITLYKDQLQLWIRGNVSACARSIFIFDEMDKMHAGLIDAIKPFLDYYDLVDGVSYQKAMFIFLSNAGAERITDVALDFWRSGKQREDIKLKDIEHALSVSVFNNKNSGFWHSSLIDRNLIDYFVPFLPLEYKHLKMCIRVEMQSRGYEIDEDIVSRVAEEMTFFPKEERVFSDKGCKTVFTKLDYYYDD
- ASSAY_METHOD_TEXT: torsin A mutant lysate binding on microarrays – cell lysate, small-molecule microarray, COS7 lysate, 635/667 nm fluorescence, primary screen (AID 1150);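 further: score pools 667 nm emission and signal to noise measuring lysate protein binding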
- MEASUREMENT_CONTEXT: COS7 hTOR1A mutant lysate, 635 nm fluorescence, higher = more signal
Short version: composite z-score at least 0.7 is 1, less is -1.

Request: Decide: is the reported value of composite z-score for C=CCC(OC(C)=O)[C@@H]1[C@@H](N(Cc2ccc(-c3cccc(C(F)(F)F)c3)o2)C(=O)c2ccc(-c3ccccc3)cc2)c2cc(OCCCO)ccc2N1C(=O)Cc1ccc2ccccc2c1 (stereo partly specified) equal to or greater than 0.7?
Response: -1

Request: Could you do the same for CCCCN1CC=CC23O[C@@H]4/C=C\CCCOC(=O)C4[C@H]2C(=O)N(CCO)[C@@H]3C1=O (stereo partly specified) , please?
Response: -1

Request: Same read-out for C=C[C@@H](CO)N(Cc1ccc(OC)cc1)S(=O)(=O)c1ccc(Br)cc1 ?
Response: 1

Request: Can you check COCC(=C=CC[C@H](O)c1ccc(CO)o1)CCO next?
Response: -1

Request: Follow-up item: COc1ccc([Si](C)(C)[C@@H]2[C@@H](CCO)O[C@]3(C(=O)N(Cc4ccccc4)c4ccc(N5CCOC5=O)cc43)[C@H]2C)cc1
Response: 1

Request: Proceed to CN1C2C=C(CCCO)C(C3C(=O)N(C(N)=O)C(=O)C32)C1C1CC1 (stereo unspecified)
Response: -1

Request: Another compound: Cc1ccc(S[C@]2(C(=O)O)CC(=O)N(C3CCCCC3)[C@@H]2c2ccc(CO)cc2I)cc1
Response: 1

Request: Please answer likewise for OCCCC1=CC(c2ccc(CN3CCCC3)cc2)N(Cc2cc3c(cc2Br)OCO3)CC1 (stereo unspecified)
Response: -1

Request: Ok, now CS(=O)(=O)CCOC(=O)C1=CC(CCCO)=CC(c2ccc(CN3CCCC3)cc2)N(Cc2sc3ccccc3c2Cl)C=C1C(=O)OCCS(C)(=O)=O (stereo unspecified)
Response: 1

Request: Ok, now CCC1=C2CN(Cc3ccccc3)[C@@H](C(=O)Cc3ccccc3)C2C=CCC1 (stereo partly specified)
Response: -1

Request: Try this compound next: C#CCN([C@@H](Cc1ccccc1)C(=O)OC)[C@@H](/C=C/C1CC1)[C@H](O)Cc1ccccc1
Response: -1

Request: Here is the next compound: C=CCNC(=O)[C@@H]1[C@H]2C(=O)O[C@H](c3ccccc3)[C@H](c3ccccc3)N2[C@H](c2ccccc2OCCO)[C@@]12C(=O)Nc1ccc(C#CCCO)cc12
Response: -1

Request: Same lookup for CCOC(=O)C[C@H]1[C@H](OC(=O)c2cc3ccccc3oc2=O)[C@@H](NC(=O)c2ccc3ccccc3n2)c2cc(OCCCO)ccc2N1C(=O)Cc1ccc(OC)cc1 , please.
Response: -1

Request: Record: O=C1C2C=CC(C(O)c3cccc(O)c3)N(Nc3ccc([N+](=O)[O-])cc3)C2C(=O)N1c1ccccc1 (stereo unspecified)
Response: -1
